Data credit: patent US20250090680A1

# Study Target: recombinant hGPC3-His (human) (UniProt P51654)
# Protocol: Biacore SPR, antibody captured, hGPC3-His analyte, 1:1 model
What koff was measured for each of the following?
State the value, then name its unit.

P1-D6 IgG variant of ARD-103 (antibody, V domains shown) VH: QVQLVQSGAEVKNPGASVKVSCKASGYTFTDYEMHWVRQAPGQGLEWMGALDPFTGDTAYSQKFKGRVTLTADKSTSTAYMELSSLTSEDTAVYYCTRFYSYTYWGQGTLVTVSS VL: DVVMTQSPLSLPVTPGEPASISCRSSQSLVHSNGNTYLHWYLQKPGQSPQLLIYKVSNRFSGVPDRFSGSGSGTDFTLKISRVEAEDVGVYYCLQNGYVPPTFGQGTKLEIKR    0.00033 s⁻¹

Read the next record carefully.
Look at this binder and give its reported koff. P1-G5 IgG variant of ARD-103 (antibody, V domains shown) VH: QVQLVESGAEVKKPGASVKVSCKASGYTFTDYEMHWVRQAPGQGLEWMGAIDPKTGDTAYSQKFKGRVTLTADKSTSTAYMELSSLTSEDTAVYYCTRFYSYTYWGQGTLVTVSS VL: DVVMTQSPLSLPVTPGEPASISCRSSQSLVHSNGNTYLQWYLQKPGQSPQLLIYKVSNRFSGVPDRFSGSGSGTDFTLKISRVEAEDVGVYYCSQVTHVPPTFGQGTKLEIKR
0.000326 s⁻¹
